# measurementNotes: Drug metabolism in bile duct-cannulated cynomolgus monkey assessed as glucuronide concentration in bile and urine at 0.2 mg/kg, iv up to 24 hrs by LC/MS/MS analysis
# conditionSet: in vivo
testReadout: Fm
No unit in the answer, please; the number alone is enough.

Ask: Looking for the measured Fm of CCCc1nc2c(C)cc(-c3nc4ccccc4n3C)cc2n1Cc1ccc(-c2ccccc2C(=O)O)cc1 , can you help?
Reply: 0.47

Ask: # Fm lookup, item COc1c(C)c2c(c(O)c1C/C=C(\C)CCC(=O)O)C(=O)OC2 [MYCOPHENOLIC ACID]
Reply: 0.54

Ask: Return reported Fm; argument: CN(C)CCCN1c2ccccc2CCc2ccccc21.Cl [IMIPRAMINE HYDROCHLORIDE]
Reply: 0.04

Ask: Give the measured Fm of C[C@H]1COc2c(N3CCN(C)CC3)c(F)cc3c(=O)c(C(=O)O)cn1c23.Cl [LEVOFLOXACIN HYDROCHLORIDE] .
Reply: 0.82

Ask: Report Fm for O=C(c1ccc(OCCN2CCCCC2)cc1)c1c(-c2ccc(O)cc2)sc2cc(O)ccc12 [RALOXIFENE] please.
Reply: 0.38

Ask: # Fm lookup, item COc1ccc2c(c1)c(CC(=O)O)c(C)n2C(=O)c1ccc(Cl)cc1 [INDOMETHACIN]
Reply: 0.94

Ask: Reported Fm, molecule O=C1Nc2ccc(Cl)cc2C(c2ccccc2Cl)=NC1O (stereo unspecified) [LORAZEPAM] : ____
Reply: 0.53

Ask: Sample Cc1ccc(C)c(OCCCC(C)(C)C(=O)O)c1 [GEMFIBROZIL] — what was its Fm?
Reply: 0.35

Ask: Item under review: NS(=O)(=O)c1cc(C(=O)O)c(NCc2ccco2)cc1Cl [FUROSEMIDE] . Reported Fm?
Reply: 0.671

Ask: Request the reported Fm associated with Cc1cn([C@H]2C[C@H](N=[N+]=[N-])[C@@H](CO)O2)c(=O)[nH]c1=O [ZIDOVUDINE]
Reply: 0.08

Ask: Fill blank: measured Fm of the molecule O=C([O-])Cc1ccccc1Nc1c(Cl)cccc1Cl.[Na+] [DICLOFENAC SODIUM] is ____.
Reply: 0.29

The reported measurements were obtained from ChEMBL document CHEMBL3526069.
